Kindly state combination Emax for each of the entries shown.
System: LN-18 (Glioblastoma)
Experiment: combination Emax (second highest fraction inhibited in the dose matrix, 72 h); higher = more inhibition; extreme values may be limits of the assay
Could you keep your reply to the number by itself?

Form field combination Emax, entry CC1(C)CCC(CN2CCN(c3ccc(C(=O)NS(=O)(=O)c4ccc(NCC5CCOCC5)c([N+](=O)[O-])c4)c(Oc4cnc5[nH]ccc5c4)c3)CC2)=C(c2ccc(Cl)cc2)C1 [Venetoclax] + CN(C)CCCOc1ccc(-c2ccc3ncc4c(c3c2)n(C2CCOCC2)c(=O)n4C)cn1 [AZD0156] (first compound max 1 µM, 7x7, partner max 1 µM) : 0.329

Form field combination Emax, entry NC1(C(=O)N[C@@H](CCO)c2ccc(Cl)cc2)CCN(c2ncnc3[nH]ccc23)CC1 [Capivasertib] + CC(=O)c1c(C)c2cnc(Nc3ccc(N4CCNCC4)cn3)nc2n(C2CCCC2)c1=O [Palbociclib] (first compound max 10 µM, 7x7, partner max 10 µM) : 0.731

###

System: KCL-22 (Chronic Myelogenous Leukemia);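 further: after 72 h of two-drug dosing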
Experiment: Bliss excess, mean over the matrix (fraction); higher = more synergy
Property Name: Bliss excess

Form field Bliss excess, entry CC(=O)c1c(C)c2cnc(Nc3ccc(N4CCNCC4)cn3)nc2n(C2CCCC2)c1=O [Palbociclib] + Cn1cnc2c(F)c(Nc3ccc(Br)cc3Cl)c(C(=O)NOCCO)cc21 [Selumetinib] (first compound max 10 µM, 7x7, partner max 10 µM) : -0.0021

Form field Bliss excess, entry CCN(CCO)CCCOc1ccc2c(Nc3cc(CC(=O)Nc4cccc(F)c4)[nH]n3)ncnc2c1 [AZD2811] + O=C(c1cc(Cc2n[nH]c(=O)c3ccccc23)ccc1F)N1CCN(C(=O)C2CC2)CC1 [Olaparib] (first compound max 1 µM, 7x7, partner max 10 µM) : 0.0534

Form field Bliss excess, entry CC1(C)CCC(CN2CCN(c3ccc(C(=O)NS(=O)(=O)c4ccc(NCC5CCOCC5)c([N+](=O)[O-])c4)c(Oc4cnc5[nH]ccc5c4)c3)CC2)=C(c2ccc(Cl)cc2)C1 [Venetoclax] + C[C@@H](Nc1cc(F)cc(F)c1)c1cc(C(=O)N(C)C)cc2c(=O)cc(N3CCOCC3)oc12 [AZD8186] (first compound max 1 µM, 7x7, partner max 3 µM) : 0.0129

Form field Bliss excess, entry CC(=O)Nc1cccc(-n2c(=O)n(C3CC3)c(=O)c3c(Nc4ccc(I)cc4F)n(C)c(=O)c(C)c32)c1 [Trametinib] + Cc1nc(-c2cn3c(n2)-c2ccc(-c4cnn(C(C)(C)C(N)=O)c4)cc2OCC3)n(C(C)C)n1 [Taselisib] (first compound max 1 µM, 7x7, partner max 10 µM) : 0.292

Form field Bliss excess, entry CN(CCO)CC[C@H](CSc1ccccc1)Nc1ccc(S(=O)(=O)NC(=O)c2ccc(N3CCC([C@@H](O)c4ccccc4-c4ccc(Cl)cc4)CC3)cc2)cc1S(=O)(=O)C(F)(F)F [AZD4320] + CCN(CCO)CCCOc1ccc2c(Nc3cc(CC(=O)Nc4cccc(F)c4)[nH]n3)ncnc2c1 [AZD2811] (first compound max 1 µM, 7x7, partner max 1 µM) : 0.0572

Form field Bliss excess, entry CC1(C)CCC(CN2CCN(c3ccc(C(=O)NS(=O)(=O)c4ccc(NCC5CCOCC5)c([N+](=O)[O-])c4)c(Oc4cnc5[nH]ccc5c4)c3)CC2)=C(c2ccc(Cl)cc2)C1 [Venetoclax] + C=CCn1c(=O)c2cnc(Nc3ccc(N4CCN(C)CC4)cc3)nc2n1-c1cccc(C(C)(C)O)n1 [AZD1775] (first compound max 1 µM, partner max 1 µM) : -0.0114

Form field Bliss excess, entry COc1nnc2ccc(N3CCC(c4ccc(OCCN5CCN(C)C(=O)[C@H]5C)cc4)CC3)nn12 [AZD5153] + Cn1cnc2c(F)c(Nc3ccc(Br)cc3Cl)c(C(=O)NOCCO)cc21 [Selumetinib] (first compound max 1 µM, 7x7, partner max 10 µM) : 0.0841

Form field Bliss excess, entry Cc1cc2ncnn2cc1Nc1ncc2c(n1)n(C1CCOCC1)c(=O)n2C [AZD7648] + O=C(c1cc(Cc2n[nH]c(=O)c3ccccc23)ccc1F)N1CCN(C(=O)C2CC2)CC1 [Olaparib] (first compound max 10 µM, 7x7, partner max 10 µM) : -0.0367

###

Tested on: CAMA-1 (Breast Carcinoma)
Test: combination Emax (second highest fraction inhibited in the dose matrix, 72 h); higher = more inhibition; extreme values may be limits of the assay
The threshold is inclusive: combination Emax of exactly 0.7 counts as Met; values below receive Not met.

Task: Does the reported combination Emax for COc1nnc2ccc(N3CCC(c4ccc(OCCN5CCN(C)C(=O)[C@H]5C)cc4)CC3)nn12 [AZD5153] + C[C@@H]1COCCN1C2=NC(=NC(=C2)C3(CC3)[S@](=N)(=O)C)C4=C5C=CNC5=NC=C4 [AZD6738] (first compound max 1 µM, 7x7, partner max 10 µM) fall at or above the 0.7 mark?
Result: Not met

Task: Does the reported combination Emax for C=CCn1c(=O)c2cnc(Nc3ccc(N4CCN(C)CC4)cc3)nc2n1-c1cccc(C(C)(C)O)n1 [AZD1775] + Nc1ccn([C@@H]2O[C@H](CO)[C@@H](O)C2(F)F)c(=O)n1 [Gemcitabine] (first compound max 1 µM, partner max 0.3 µM) fall at or above the 0.7 mark?
Result: Not met

Task: Does the reported combination Emax for C=CCn1c(=O)c2cnc(Nc3ccc(N4CCN(C)CC4)cc3)nc2n1-c1cccc(C(C)(C)O)n1 [AZD1775] + C1CN(CCC1(C(=O)N[C@@H](CCO)C2=CC=C(C=C2)Cl)N)C3=NC=NC4=C3C=CN4 [Capivasertib] (first compound max 3 µM, partner max 3 µM) fall at or above the 0.7 mark?
Result: Met

Task: Does the reported combination Emax for C[C@@H](Nc1cc(F)cc(F)c1)c1cc(C(=O)N(C)C)cc2c(=O)cc(N3CCOCC3)oc12 [AZD8186] + CC(=O)c1c(C)c2cnc(Nc3ccc(N4CCNCC4)cn3)nc2n(C2CCCC2)c1=O [Palbociclib] (first compound max 10 µM, 7x7, partner max 10 µM) fall at or above the 0.7 mark?
Result: Met

###

Test system: MKN28 (Gastric Carcinoma)
Assay: combination Emax (second highest fraction inhibited in the dose matrix, 72 h); higher = more inhibition; extreme values may be limits of the assay
Property Name: combination Emax
Could you keep your reply to the number by itself?

Form field combination Emax, entry COc1cccc(OCCCN)c1-c1cc(Nc2cnc(C#N)cn2)n[nH]1 [Prexasertib] + C[C@@H]1COCCN1C2=NC(=NC(=C2)C3(CC3)[S@](=N)(=O)C)C4=C5C=CNC5=NC=C4 [AZD6738] (first compound max 1 µM, 7x7, partner max 10 µM) : 0.597

Form field combination Emax, entry CC(=O)c1c(C)c2cnc(Nc3ccc(N4CCNCC4)cn3)nc2n(C2CCCC2)c1=O [Palbociclib] + CC1(C)CCC(CN2CCN(c3ccc(C(=O)NS(=O)(=O)c4ccc(NCC5CCOCC5)c([N+](=O)[O-])c4)c(Oc4cnc5[nH]ccc5c4)c3)CC2)=C(c2ccc(Cl)cc2)C1 [Venetoclax] (first compound max 10 µM, 7x7, partner max 1 µM) : 0.0507

Form field combination Emax, entry CN(CCO)CC[C@H](CSc1ccccc1)Nc1ccc(S(=O)(=O)NC(=O)c2ccc(N3CCC([C@@H](O)c4ccccc4-c4ccc(Cl)cc4)CC3)cc2)cc1S(=O)(=O)C(F)(F)F [AZD4320] + C=CCn1c(=O)c2cnc(Nc3ccc(N4CCN(C)CC4)cc3)nc2n1-c1cccc(C(C)(C)O)n1 [AZD1775] (first compound max 1 µM, partner max 1 µM) : 0.536

Form field combination Emax, entry N#Cc1cnc(Nc2cc(NC[C@H]3CNCCO3)c(C(F)(F)F)cn2)cn1 [SRA737] + CCc1c2c(nc3ccc(O)cc13)-c1cc3c(c(=O)n1C2)COC(=O)[C@]3(O)CC [SN-38] (first compound max 10 µM, 7x7, partner max 0.3 µM) : 0.552

Form field combination Emax, entry C=CCn1c(=O)c2cnc(Nc3ccc(N4CCN(C)CC4)cc3)nc2n1-c1cccc(C(C)(C)O)n1 [AZD1775] + O=C(c1cc(Cc2n[nH]c(=O)c3ccccc23)ccc1F)N1CCN(C(=O)C2CC2)CC1 [Olaparib] (first compound max 1 µM, partner max 10 µM) : 0.573

Form field combination Emax, entry NC1(C(=O)N[C@@H](CCO)c2ccc(Cl)cc2)CCN(c2ncnc3[nH]ccc23)CC1 [Capivasertib] + CCN(CCO)CCCOc1ccc2c(Nc3cc(CC(=O)Nc4cccc(F)c4)[nH]n3)ncnc2c1 [AZD2811] (first compound max 10 µM, 7x7, partner max 1 µM) : 0.206

Form field combination Emax, entry COc1cccc(OCCCN)c1-c1cc(Nc2cnc(C#N)cn2)n[nH]1 [Prexasertib] + CN(C)CCCOc1ccc(-c2ccc3ncc4c(c3c2)n(C2CCOCC2)c(=O)n4C)cn1 [AZD0156] (first compound max 1 µM, 7x7, partner max 1 µM) : 0.597
